- Test system: barnyardgrass (Echinochloa crus-galli)
- experiment_description: Test G Post-Emergence Protocol
- Assay type: in vivo
- stated_conditions: Echinochloa crus-galli, post-emergence, 312 h, 250 g ai/ha, evaluated after 13 days, read-out: damage to plant, Barnyardgrass (100=total damage to plant; 0=no damage to plant)
endpoint_name: pest or weed control at 250 g/ha (%)

> print(dat)
                                   compound  result
1  CN1C[C@H](c2cccc(C(F)F)c2)[C@@H](C(=O)Nc2cccc(F)c2F)C1=O (racemic) [Compound 1588]      80
2  COc1cc(NC(=O)[C@@H]2C(=O)N(C)C[C@H]2c2ccc(C(F)(F)F)cc2)ccn1 (racemic) [Compound 1589]       0
3  CN1C[C@H](c2ccc3c(c2)CCO3)[C@@H](C(=O)Nc2cccc(F)c2F)C1=O (racemic) [Compound 1499]      60
4  CN1C[C@@H](c2ccc(C(F)(F)F)cc2)[C@H](C(=O)Nc2cnccc2Cl)C1=O (racemic) [Compound 1541]      20
5  Cc1ncsc1NC(=O)[C@@H]1C(=O)N(C)C[C@H]1c1ccc(C(F)(F)F)cc1 (racemic) [Compound 1635]      30
6  CN1C[C@H](c2ccc3occc3c2)[C@@H](C(=O)Nc2cccc(F)c2F)C1=O (racemic) [Compound 1500]      60
